Kindly supply the reported min viability (%) values for the records listed here.
Tested on: S2, H2 or SC cells
Assay: Secondary assays: multiplexed cell viability (CellTiter-Fluor)
Conditions: minimum viability, multiplexed CellTiter-Fluor, over 12 doses; summary data
Give bare numbers, in %.

| Compound | Measurement target | Reported |
| --- | --- | --- |
| O=c1[nH]c2ccc(Cl)cc2c(N[C@@H]2CN3CCC2CC3)c1-c1nc2ccccc2[nH]1 [NCGC00346626-01, CHIR-124] | S2, H2 or SC cells | 75.0552 |

List min viability (%) for every entry below, keeping the order given.
1. CN[C@@H]1CN(c2ccc3c(=O)c(C(=O)O)cn(-c4nccs4)c3n2)C[C@@H]1OC [NCGC00346437-01]
2. CC(C)c1cc(-c2n[nH]c(=O)n2-c2ccc3c(ccn3C)c2)c(O)cc1O [NCGC00346678-01]
3. CCNC(=O)c1noc(-c2cc(C(C)C)c(O)cc2O)c1-c1ccc(CN2CCOCC2)cc1 [NCGC00247878-01]
4. S=C(NCCCN1CCOCC1)N1CCN(c2nc(-c3ccccc3)cs2)CC1 [MLS000706289-02]
5. Nc1ncnc2c1c(-c1cnc3[nH]ccc3c1)nn2C1CCCC1 [NCGC00346619-01, PP121]
6. CCC(=C/[C@H](C)C/C=C/C(C)=C/[C@@H](C)C(=O)[C@@H](C)[C@H](O)[C@@H](C)C/C(C)=C/C(=O)O)/C=C/[C@@H]1OC(=O)C=C[C@@H]1C [NCGC00162440-02]
7. Cn1cc(-c2cnn3c(N)c(Br)c([C@H]4CCCNC4)nc23)cn1 [NCGC00346653-01]

output:
[71.6056, 77.8152, 94.6315, 89.1129, 50.3878, 65.4242, 87.0431]

Just for reference, paper PMC9356275 is where these values come from.
